- tested-system: T1, K755A (Drosophila melanogaster, UniProt Q9W1K4 512-819, K755A)
- T1 sequence: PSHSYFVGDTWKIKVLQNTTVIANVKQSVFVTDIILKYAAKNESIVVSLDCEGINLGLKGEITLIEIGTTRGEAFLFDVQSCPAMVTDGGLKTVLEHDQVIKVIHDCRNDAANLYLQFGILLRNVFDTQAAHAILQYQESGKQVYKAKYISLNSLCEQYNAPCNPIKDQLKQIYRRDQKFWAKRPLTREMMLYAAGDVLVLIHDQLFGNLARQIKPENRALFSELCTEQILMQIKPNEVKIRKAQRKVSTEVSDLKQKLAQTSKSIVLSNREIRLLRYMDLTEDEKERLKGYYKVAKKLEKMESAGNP
- experiment-summary: fluorescence anisotropy; FA: 20 mM HEPES-NaOH pH 7.5, 100 mM NaCl, 10% glycerol, 20 C, 10 nM FAM-RNA; competition: 150 nM Egl512-819 + 10 nM FAM-K10 TLS, same buffer
- protocol-conditions: protein: recombinant; tags: N-terminal GST; label: 5'-6-FAM; hairpin with two bulges
measured-metric: Kd (nM)
A number alone suffices; assume nM.

Summary for this binder, CUUGAUUGUAUUUUUAAAUUAAUUCUUAAAAACUACAAAUUAAG (structured_RNA) [K10 TLS (FAM)] : Kd is 131
